Recorded values, source PubChem BioAssay (EPA / NIEHS).

test-details: ATG_GLI_CIS: Attagene CIS-FACTORIAL HepG2 Assay for human Zinc Finger Protein GLI1 (AID 2282945)
conditions-used: HepG2, Attagene cis-factorial reporter mRNA, GLI element; actives raise or lower the signal
Activity calls are given as the source filed them. Rule for the calls: active = hit-call score of the fitted dose curve at least 0.9, where 1 is the maximum; inactive = score below 0.9.
Parameter call: string, one of active, inactive

Worked examples, 10 compounds total:
{"columns": ["compound", "assigned-label"],
 "data": [
  ["CCCCCCCCCCCCCCCC(=O)OC", "inactive"],
  ["O=C(OC(=O)C(F)(F)C(F)(F)F)C(F)(F)C(F)(F)F", "inactive"],
  ["CCCCCCCCC(C)=O", "inactive"],
  ["c1ccc2c(c1)CCC2", "inactive"],
  ["Cc1ccc(S(=O)(=O)O)cc1", "inactive"],
  ["Cc1cc(=O)oc2cc(O)ccc12", "inactive"],
  ["CCC(=O)O", "inactive"],
  ["CC1CCC(C(=O)O)CC1 (stereo not drawn)", "inactive"],
  ["CCC(=O)C=Cc1ccc(OC)cc1", "inactive"],
  ["CCCCC(CC)C(=O)OCCOCCOCCOCCOC(=O)C(CC)CCCC (stereo not drawn)", "inactive"]
]}

Request: Could you please tell me the result logged for CC1=NN(c2ccccc2)C(=O)C1 in this assay?
Response: inactive

Request: Can you handle CC(C)(C)c1ccc(O)c(O)c1 next?
Response: inactive

Request: What about this compound? NNC(=O)CCCCC(=O)NN
Response: inactive

Request: Try this compound too: C=CC(=O)OCCN(CC)CC
Response: inactive

Request: Another compound to check: CCOC(OCC)C(=O)c1ccccc1
Response: inactive

Request: Same lookup for Oc1c(Cl)cc(Cl)cc1Sc1cc(Cl)cc(Cl)c1O , please.
Response: inactive

Request: Likewise for CCCCCCCCCC=CCC1CC(=O)OC1=O (stereo not drawn) ?
Response: inactive

Request: Please do the same for COc1ccccc1NC(=O)c1cc2ccccc2cc1O as well.
Response: active
